system_tested: T1, huFLT3-T227 stably expressed on Ramos cells (human, UniProt P36888 27-993)
T1 construct: whole, on cells; also called FLT3 WT
measurement_notes: FACS on cells
assay_readout: FACS geometric mean fold change over Jurkat parental

# binder, result
rows = [
    ("Polypeptide No. 221 (scFv, V domains shown, scFv) VH: QVQLVQSGAEVKKPGASVKVSCKASGYTFTDNYMHWVRQAPGQGLEWMGWMTPDSNNTGFAQNFQGRVTMTRDTSTSTVYMELSSLRSEDTAVYYCALGDGPFGMDVWGQGTTVTVSS VL: DIVMTQSPLSLPVTPGEPASISCRSSQSLLHSNGYNYLDWYLQKPGQSPQLLIYGASYLQSGVPDRFSGSGSGTDFTLKISRVEAEDVGVYYCMQALQGPITFGQGTKVEIKR", "< 2 fold"),
    ("Polypeptide No. 208 (scFv, V domains shown, scFv) VH: QVQLVQSGAEVKKPGASVKVSCKASGGTFSSRSISWVRQAPGQGLEWMGIINPSGGGTLYAQKFQGRVTMTRDTSTSTVYMELSSLRSEDTAVYYCAKDMDGWSDAFDIWGQGTTVTVSS VL: EIVMTQSPATLSVSPGERATLSCRASQSLSNIYLAWYQQKPGQAPRLLIYDVSSRAAGIPARFSGSGSGTEFTLTISSLQSEDFAVYYCQQYATSPLTFGGGTKVEIKR", "10 to 30 fold"),
    ("Polypeptide No. 233 (scFv, V domains shown, scFv) VH: QVQLVQSGAEVKKPGASVKVSCKASGYTFTSYYLHWVRQAPGQGLEWIGVINPSGGSTTYAQRFQGRVTMTRDTSTSTVYMELSSLRSEDTAVYYCARGIGYGGYFDYWGQGTLVTVSS VL: DIVMTQSPLSLPVTPGEPASISCRSSQSLLHSNGYNYLDWYLQKPGQSPQLLIYAASSLQSGVPDRFSGSGSGTDFTLKISRVEAEDVGVYYCMQGLRTPHTFGGGTKVEIKR", "> 30 fold"),
]
